- assay_target: 5'-nucleotidase (Rattus norvegicus, UniProt P21588)
- Sequence (P21588 whole entry): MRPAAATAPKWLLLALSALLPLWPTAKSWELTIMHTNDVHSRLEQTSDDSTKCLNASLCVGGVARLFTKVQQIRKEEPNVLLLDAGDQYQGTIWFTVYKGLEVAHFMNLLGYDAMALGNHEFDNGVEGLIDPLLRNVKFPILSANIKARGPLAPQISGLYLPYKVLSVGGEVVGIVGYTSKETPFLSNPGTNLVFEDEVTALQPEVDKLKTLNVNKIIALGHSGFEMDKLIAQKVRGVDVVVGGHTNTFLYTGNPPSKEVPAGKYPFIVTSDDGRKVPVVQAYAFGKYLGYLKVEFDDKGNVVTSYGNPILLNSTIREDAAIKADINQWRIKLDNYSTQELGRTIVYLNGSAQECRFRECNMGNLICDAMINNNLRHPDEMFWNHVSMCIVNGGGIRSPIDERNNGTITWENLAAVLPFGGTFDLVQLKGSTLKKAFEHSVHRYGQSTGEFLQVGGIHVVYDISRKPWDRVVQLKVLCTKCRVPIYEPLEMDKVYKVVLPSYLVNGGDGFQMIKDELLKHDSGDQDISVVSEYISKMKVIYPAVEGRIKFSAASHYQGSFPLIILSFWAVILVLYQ
measured_parameter: IC50 (nM)
Enter your answer as a number in nM; do not include the unit.

Return reported IC50; argument: "Cc1nn(-c2ccccc2)c2nc(-c3ccccc3O)ccc12"
640
